- System: MAXF 1322 breast papillary adeno carcinoma, pd
- Assay Comment: Clonogenic assay (TCA), MAXF 1322
- Assay type: cell-based
- Condition Summary: Homo sapiens, MAXF 1322, Papillary adeno carcinoma, read-out: IC50 colony formation
pIC50: −log10 of the molar value.
Measured Metric: pIC50

[[record]]
molecule = "CC/C=C\\CC1C(=O)CCC1CC(=O)Oc1cccc2cccnc12 (stereo not shown)"
reported_result = 5.81


###

- System: basal cell carcinoma cells (cell line TE 354.T)
- Assay Comment: Proliferation assay using XTT reagent, basal cell carcinoma cells
- Format: cell-based
- Condition Summary: 72 h, three days, read-out: IC50 inhibition of proliferation of basal cell carcinoma cells
pIC50: −log10 of the molar value.
Each record here notes measured pIC50.
Measured Metric: pIC50

[[record]]
compound = "CC/C=C\\CC1C(=O)CCC1CC(=O)Oc1cccc2cccnc12 (centres unmarked) [Compound 9]"
reported_result = 7.31

[[record]]
compound = "CC/C=C\\CC1C(=O)CCC1CC(=O)OC (centres unmarked) [Methyl jasmonate, methyl jasmonate, reference compound]"
reported_result = 4.80


###

- System: LXFA 1012 lung, non small, adeno carcinoma, pd
- Assay Comment: Clonogenic assay (TCA), LXFA 1012
- Assay type: cell-based
- Condition Summary: Homo sapiens, LXFA 1012, Adeno carcinoma, read-out: IC50 colony formation
pIC50: −log10 of the molar value.
Measured Metric: pIC50

[[record]]
molecule = "CC/C=C\\CC1C(=O)CCC1CC(=O)Oc1cccc2cccnc12 (stereo not shown)"
test_system = "LXFA 1012 lung, non small, adeno carcinoma, pd"
reported_result = 5.88


###

- Tested on: LXFA 749 lung, non small, adeno carcinoma, pd
- Assay Comment: Clonogenic assay (TCA), LXFA 749
- Assay type: cell-based
- Condition Summary: Homo sapiens, LXFA 749, Adeno carcinoma, read-out: IC50 colony formation
Measured Metric: IC50 (nM)

[[record]]
molecule = "CC/C=C\\CC1C(=O)CCC1CC(=O)Oc1cccc2cccnc12 (stereo not shown) [Compound 9]"
test_system = "LXFA 749 lung, non small, adeno carcinoma, pd"
reported_result = 1700


###

- Test system: RXF 1220 kidney hypernephroma, pd
- Assay Comment: Clonogenic assay (TCA), RXF 1220
- Assay type: cell-based
- Condition Summary: Homo sapiens, RXF 1220, Hypernephroma, read-out: IC50 colony formation
Measured Metric: IC50

[[record]]
compound = "CC/C=C\\CC1C(=O)CCC1CC(=O)Oc1cccc2cccnc12 (stereo not shown)"
reported_result = "6.32 µM"


###

- System: LXFA 629 lung, non small, adeno carcinoma, pd
- Assay Comment: Clonogenic assay (TCA), LXFA 629
- Type: cell-based
- Condition Summary: Homo sapiens, LXFA 629, Adeno carcinoma, read-out: IC50 colony formation
pIC50: −log10 of the molar value.
Measured Metric: pIC50

[[record]]
compound = "CC/C=C\\CC1C(=O)CCC1CC(=O)Oc1cccc2cccnc12 (stereo not shown)"
measured_metric = "pIC50"
reported_result = 5.86


###

- Test system: squamous cell carcinoma cells (cell line A431)
- Assay Comment: Proliferation assay using XTT reagent, squamous cell carcinoma cells
- Type: cell-based
- Condition Summary: A431, three days, read-out: IC50 inhibition of proliferation of squamous cell carcinoma cells
pIC50: −log10 of the molar value.
Measured Metric: pIC50

[[record]]
molecule = "CCCCCC1C(=O)CCC1CC(=O)Oc1cccc2cccnc12 (stereo not shown)"
measured_metric = "pIC50"
reported_result = 7.44

